# key: entry, value: pIC50
Biological target: CYP2B6 (Homo sapiens)
Construct: Pooled human liver microsomes were obtained from Biopredic (Rennes, France); tissue Biopredic (Rennes, France); host or cells: pooled human liver microsomes, seventeen donors
Sequence (P20813 whole entry): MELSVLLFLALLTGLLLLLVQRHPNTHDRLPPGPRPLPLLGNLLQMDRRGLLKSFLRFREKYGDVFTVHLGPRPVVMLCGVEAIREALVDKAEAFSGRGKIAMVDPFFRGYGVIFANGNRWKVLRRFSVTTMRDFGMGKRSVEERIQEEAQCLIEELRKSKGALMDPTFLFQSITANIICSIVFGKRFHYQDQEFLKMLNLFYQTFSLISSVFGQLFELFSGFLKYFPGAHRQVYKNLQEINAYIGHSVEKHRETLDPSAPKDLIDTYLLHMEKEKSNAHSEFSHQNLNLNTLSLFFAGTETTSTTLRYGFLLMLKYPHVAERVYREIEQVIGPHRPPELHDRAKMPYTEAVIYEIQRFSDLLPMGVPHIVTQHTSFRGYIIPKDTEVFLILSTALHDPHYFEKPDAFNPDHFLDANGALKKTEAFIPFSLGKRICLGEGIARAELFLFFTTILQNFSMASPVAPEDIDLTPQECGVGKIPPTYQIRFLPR
Assay: Inhibition of CYP2B6 activity (EFC O-deethylation) in human liver microsomes
Assay type: in vitro ADME
Settings: HLM, EFC 15 µmol·L^−1, preincubation 30 min at 37 °C, Mean ± S.D.
Lab note — pIC50 values are minus log10 of concentrations in M.

CN(C)CCN(C)CCN(C)C.CN(C)CCN(C)CCN(C)C.O.O.O=C([O-])CCSSCCC(=O)[O-].[Cu+2].[Cu+2].[O-][Cl+3]([O-])([O-])[O-].[O-][Cl+3]([O-])([O-])[O-] [Complex No. 6, [Cu2(μ-dtdp)(pmdien)2(H2O)2](ClO4)2] : 4.88

Turning now to a further record.
Which pIC50 value belongs to CN(C)CCN(C)CCN(C)C.CN(C)CCN(C)CCN(C)C.O.O.O=C([O-])/C=C/C(=O)[O-].[Cu+2].[Cu+2].[O-][Cl+3]([O-])([O-])[O-].[O-][Cl+3]([O-])([O-])[O-] [Complex No. 5, [Cu2(μ-fu)(pmdien)2(H2O)2](ClO4)2] ? 4.61

###

Tested on: HLM CYP enzymes
Experiment: Spectral study (binding difference spectra) of the interaction with HLM CYP enzymes
Parameters: species or system human
Conditions: HLM, CYP 1 µmol·L^−1 in 50 mmol·L^−1 potassium phosphate buffer pH 7.4, absorbance change at about 417 nm, room temperature; read-out: spectroscopic binding constant (KS)
# key: entry, value: Kd
Return type: number; implicit unit µM.

CN(C)CCN(C)CCN(C)C.CN(C)CCN(C)CCN(C)C.O.O.O=C([O-])CCSSCCC(=O)[O-].[Cu+2].[Cu+2].[O-][Cl+3]([O-])([O-])[O-].[O-][Cl+3]([O-])([O-])[O-] [Complex No. 6, [Cu2(μ-dtdp)(pmdien)2(H2O)2](ClO4)2] : 44.9

Turning now to a further record.
Which Kd value belongs to CN(C)CCN(C)CCN(C)C.CN(C)CCN(C)CCN(C)C.O.O.O=C([O-])/C=C/C(=O)[O-].[Cu+2].[Cu+2].[O-][Cl+3]([O-])([O-])[O-].[O-][Cl+3]([O-])([O-])[O-] [Complex No. 5, [Cu2(μ-fu)(pmdien)2(H2O)2](ClO4)2] ? 39.5
